Would you kindly list koff for each of these binders?
- System tested: T1, human KDR1 to 3 domain (human, UniProt P35968 20-327, limits assumed)
- T1 construct: domain: KDR1 to 3 domain; The panning antigen was KDR1 to 3 domain-Fc; Treated as one molecule; also called KDR1 to 3 domains; KDR D1 to D3
- T1 sequence (P35968 20-327 limits assumed): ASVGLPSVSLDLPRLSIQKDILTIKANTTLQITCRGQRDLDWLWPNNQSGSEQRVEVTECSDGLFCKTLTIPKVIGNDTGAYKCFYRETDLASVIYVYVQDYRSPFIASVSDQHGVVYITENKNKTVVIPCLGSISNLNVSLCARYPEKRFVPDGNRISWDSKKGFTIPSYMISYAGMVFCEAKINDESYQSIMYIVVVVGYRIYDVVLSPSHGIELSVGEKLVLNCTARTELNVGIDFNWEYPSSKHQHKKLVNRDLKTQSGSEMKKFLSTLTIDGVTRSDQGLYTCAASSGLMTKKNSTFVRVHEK
- Protocol description: BLI (Octet), antibody on biosensor, human KDR1 to 3 as analyte
Your answer is read as s⁻¹, so omit the unit and give the number.

Query string: Provide measured koff value, entry: LHL-G1 (IgG) (antibody, V domains shown, Converted to IgG with the pfusess-hchg1 (human IgG1) and pfuse2ss-hclk (human kappa) vectors) VH: EVQLVESGGGLVQPGGSLRLSCAASGYTFSSYWMSWVRQAPGKGLEWVSEINPGNGHTNYNEKFKSRFTISRDKSKNTLYLQMNSLRAEDTAVYYCARSYRPSLTSPFDFWGQGTLVTVSS VL: DIQMTQSPSSLSASVGDRVTITCRADNLGDVNVHWYQQKPGKAPKLLIYYDADRPSGVPSRFSGSNSGNDATLTISSLQPEDFATYYCQAPTTNEPYTFGQGTKVEIKR
Result string: 0.000251

Query string: Provide measured koff value, entry: A5 (IgG) (antibody, V domains shown, Converted to IgG with the pfusess-hchg1 (human IgG1) and pfuse2ss-hclk (human kappa) vectors) VH: EVQLVESGGGLVQPGGSLRLSCAASGYTFSSYWMSWVRQAPGKGLEWVSEINPGNGHTNYNEKFKSRFTISRDKSKNTLYLQMNSLRAEDTAVYYCARHWGPSLTSPFDYWGQGTLVTVSS VL: DIQMTQSPSSLSASVGDRVTITCRADNLGDVNVHWYQQKPGKAPKLLIYYDADRPSGVPSRFSGSNSGNDATLTISSLQPEDFATYYCQAPTTHLPYTFGQGTKVEIKR
Result string: 8.86e-05

Query string: Provide measured koff value, entry: D4 (IgG) (antibody, V domains shown, Converted to IgG with the pfusess-hchg1 (human IgG1) and pfuse2ss-hclk (human kappa) vectors) VH: EVQLVESGGGLVQPGGSLRLSCAASGYTFSSYWMSWVRQAPGKGLEWVSEINPGNGHTNYNEKFKSRFTISRDKSKNTLYLQMNSLRAEDTAVYYCARHWGPSLTSPFDYWGQGTLVTVSS VL: DIQMTQSPSSLSASVGDRVTITCRADNLGDVNVHWYQQKPGKAPKLLIYYDADRPSGVPSRFSGSNSGNDATLTISSLQPEDFATYYCQAPTNNDPYTFGQGTKVEIKR
Result string: 3.45e-05

Query string: Provide measured koff value, entry: D3 (IgG) (antibody, V domains shown, Converted to IgG with the pfusess-hchg1 (human IgG1) and pfuse2ss-hclk (human kappa) vectors) VH: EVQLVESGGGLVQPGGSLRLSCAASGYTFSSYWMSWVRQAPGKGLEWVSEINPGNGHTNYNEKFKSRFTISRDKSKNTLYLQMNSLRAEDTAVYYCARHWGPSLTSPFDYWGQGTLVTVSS VL: DIQMTQSPSSLSASVGDRVTITCRADNLGDVNVHWYQQKPGKAPKLLIYYDADRPSGVPSRFSGSNSGNDATLTISSLQPEDFATYYCQAPTKNVPYTFGQGTKVEIKR
Result string: 8.67e-05

Query string: Provide measured koff value, entry: LH-E7 (IgG) (antibody, V domains shown, Converted to IgG; VH was cloned into Invivogen pfusess-hchg1 (human IgG1 heavy constant) and VL into pfuse2ss-hclk (human kappa constant); also called LH-67; LH-ET) VH: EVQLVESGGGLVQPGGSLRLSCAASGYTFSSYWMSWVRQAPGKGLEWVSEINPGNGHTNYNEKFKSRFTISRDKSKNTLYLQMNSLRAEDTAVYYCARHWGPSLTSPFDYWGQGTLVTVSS VL: DIQMTQSPSSLSASVGDRVTITCRADNLGDVNVHWYQQKPGKAPKLLIYYDADRPSGVPSRFSGSNSGNDATLTISSLQPEDFATYYCQAPTRIAPYTFGQGTKVEIKR
Result string: 6.55e-05

# credit: patent US20240383989A1
